Values compiled from patent US8754068B2.

Consider the following compounds; for each one, report its pEC50.
- Test system: recombinant NL4-3 virus (Renilla luciferase in nef, Gag P373S)
- ASSAY_COMMENT: HIV cell culture assay (luciferase reporter virus in MT-2 cells)
- Format: cell-based
- SETTINGS: NL43
pEC50: −log10 of the molar value.

Given the entry C=C(C)[C@@H]1CC[C@]2(C(=O)O)CC[C@]3(C)[C@H](CC[C@@H]4[C@@]5(C)CC=C(c6ccc(C7(C(=O)O)CC7)cc6)C(C)(C)[C@@H]5CC[C@]43C)[C@@H]12 [Example 4c] , report its measured pEC50.
> 6.00

Now consider CC(C)[C@@H]1CC[C@]2(C(=O)O)CC[C@]3(C)[C@H](CC[C@@H]4[C@@]5(C)CC[C@H](c6ccc(C(=O)O)cc6)C(C)(C)[C@@H]5CC[C@]43C)[C@@H]12 [Example 3b] .
> 6.00

Input C=C(C)[C@@H]1CC[C@]2(C(=O)O)CC[C@]3(C)[C@H](CC[C@@H]4[C@@]5(C)CC=C(c6ccc(-c7cnc8ccccc8c7C(=O)O)cc6)C(C)(C)[C@@H]5CC[C@]43C)[C@@H]12 [Example 4m]
< 6.00

One more compound: C=C(C)[C@@H]1CC[C@]2(C(=O)OC)CC[C@]3(C)[C@H](CC[C@@H]4[C@@]5(C)CC=C(c6ccc(C(=O)O)cc6)C(C)(C)[C@@H]5CC[C@]43C)[C@@H]12 [Example 1b]
> 6.00
